Values from patent US6649639B2

- System: HRV serotype 89
- measurement_notes: Antirhinoviral HI-HeLa Cell Culture Assay (XTT cell protection), HRV serotype 89
- Type: cell-based, human rhinovirus
- cond: HRV serotype 89, HI-HeLa cells
measured_metric: EC50 (nM)

compound | data_value
CCOC(=O)/C=C/C(CCC(N)=O)NC(=O)C(CC(=O)C(NC(=O)SC1CCCC1)C(C)C)Cc1ccccc1 (stereo not shown) [Compound 7] | 4

###

- System: HI-HeLa cells
- measurement_notes: Cytotoxicity (CC50) in mock-infected HI-HeLa cells, antirhinoviral assay
- Type: cell-based
- cond: line of HRV serotype 10
Catalogue of CC50 values

compound | CC50
CCOC(=O)/C=C/C(CCC(N)=O)NC(=O)C(CC(=O)C(NC(=O)SC1CCCC1)C(C)C)Cc1ccc(C)cc1 (stereo not drawn) | > 3 µM
CCOC(=O)C=CC(CCC(N)=O)NC(=O)C(CC(=O)C(NC(=O)C1SCCCS1)C(C)C)Cc1ccc(F)cc1 (stereo not drawn) | > 3 µM
CC(C)C(NC(=O)SC1CCCC1)C(=O)CC(Cc1ccc(F)cc1)C(=O)NC(C=CC(=O)OCc1cccnc1)CCC(N)=O (stereo not drawn) | > 10 µM
CC(C)C(NC(=O)SC1CCCC1)C(=O)CC(Cc1ccc(F)cc1)C(=O)NC(C=CC(=O)OCCO)CCC(N)=O (stereo not drawn) | > 32 µM
CCOC(=O)/C=C/C(CCC(N)=O)NC(=O)C(CC(=O)C(NC(=O)SC1CCCC1)C(C)C)Cc1ccccc1 (stereo not drawn) | > 10 µM
CCOC(=O)C=CC(CCC(N)=O)NC(=O)C(CC(=O)C(NC(=O)SC(C)(C)C)C(C)C)Cc1ccc(F)cc1 (stereo not drawn) | > 10 µM
CC(C)C(NC(=O)SC(C)(C)C)C(=O)CC(Cc1ccc(F)cc1)C(=O)NC(C=CC(=O)OCc1cccnc1)CCC(N)=O (stereo not drawn) | > 32 µM
CCOC(=O)C=CC(CCC(N)=O)NC(=O)C(CC(=O)C(NC(=O)c1cc(C)on1)C(C)C)Cc1ccc(F)cc1 (stereo not drawn) | > 3 µM
CCOC(=O)C=CC(CCC(N)=O)NC(=O)C(CC(=O)C(NC(=O)C1SCCS1)C(C)C)Cc1ccc(F)cc1 (stereo not drawn) | > 1 µM

###

Catalogue of pEC50 values
- System: HRV serotype 2
- measurement_notes: Antirhinoviral HI-HeLa Cell Culture Assay (XTT cell protection), HRV serotype 2
- Type: cell-based, human rhinovirus
- cond: HRV serotype 2, HI-HeLa cells
pEC50: −log10 of the molar value.

compound | pEC50
CCOC(=O)/C=C/[C@H](CCC(N)=O)NC(=O)[C@@H](CC(=O)[C@@H](NC(=O)SCC)C(C)C)Cc1ccccc1 | 6.30
CCOC(=O)/C=C/C(CCC(N)=O)NC(=O)C(CC(=O)C(NC(=O)SC1CCCC1)C(C)C)Cc1ccccc1 (centres unmarked) | 7.00
CCOC(=O)/C=C/[C@H](CCC(N)=O)NC(=O)[C@@H](CC(=O)[C@@H](NC(=O)SCC)C(C)C)Cc1ccc(C)cc1 | 6.74
CCOC(=O)/C=C/C(CCC(N)=O)NC(=O)C(CC(=O)C(NC(=O)SC1CCCC1)C(C)C)Cc1ccc(C)cc1 (centres unmarked) | 6.92
CCOC(=O)/C=C/[C@H](CCC(N)=O)NC(=O)[C@@H](CC(=O)[C@H](CC(C)C)NC(=O)SCC)Cc1ccccc1 | 5.74
